System: COLO 205 colon
METHOD_NOTES: NCI tumour cell line growth inhibition, 48 h
QUANTITY_KIND: TGI (µM)
Give bare numbers, in µM.

In the examples that follow, each entry is paired with its recorded TGI.
MOLECULE	TEST_TARGET	TGI [µM]
Oc1c(O)c(Cl)c(Cl)c(Cl)c1Cl	COLO 205 colon	33.7
Cc1nc(Sc2nc3ccc([N+](=O)[O-])cc3s2)sc1C	COLO 205 colon	6.07
CC[C@@H](O)C[C@H]1CCC[C@@]2(C[C@@H]3OC(=O)/C=C/[C@@](C)(O)[C@@H](O)[C@H](C)[C@@H](O)[C@H](OC4CCC(N(C)C)C(C)O4)[C@@H](O)[C@](C)(O)CCCCC/C=C/[C@@H]4CC(C)(C)O[C@@]4(O)C[C@H](O2)[C@H]3C)O1 (stereo not given in full)	COLO 205 colon	14.5

Consider the additional molecule presented here.
COc1ccc2[nH]c(C(=O)OCc3ccc4cccc(O)c4n3)cc2c1 has a reported TGI of 2.91
